- ASSAYED SYSTEM: Aβ42 (Homo sapiens)
- TEST DETAILS: Th-T (thioflavin-T) assay of Aβ42 aggregation
- Type: biochemical
- CONDITION SUMMARY: time-course reading M104; Supplementary Fig. 47 source data
VALUE TYPE: Th-T fluorescence, mean of three wells
Answer using only a numeral; do not append any unit.

Requested read-out: Th-T fluorescence, mean of three wells. Entry: C=C1CC[C@H]2[C@]3(C)C[C@H](C=C(C)C)O[C@H]3CC[C@]2(C)[C@@H]1Cc1c(OC)oc(C)c(C)c1=O 3.979

Quick one: C=C1CC[C@H]2[C@]3(C)C[C@H](C=C(C)C)O[C@H]3CC[C@]2(C)[C@@H]1Cc1c(O)c(C)c(C)oc1=O 3.101

Quick one: C=C1CCC2C(C)(CC(=O)C=C(C)C)C(O)CCC2(C)C1Cc1c(OC)oc(CO)c(C)c1=O (stereo not shown) 3.661

Quick one: CC(C)=CCC/C(C)=C/CC/C(C)=C/CC/C(C)=C/Cc1c(O)c(C)c(C)oc1=O 2.951

---

- ASSAYED SYSTEM: Aβ42 (Homo sapiens, UniProt P05067)
- Sequence (P05067 672-713): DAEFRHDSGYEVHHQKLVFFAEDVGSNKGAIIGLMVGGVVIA
- TEST DETAILS: Th-T (thioflavin-T) assay of Aβ42 aggregation
- Format: biochemical
- CONDITION SUMMARY: time-course reading M109; Supplementary Fig. 47 source data
Could you please report measured Th-T fluorescence, mean of three wells for the items listed next?
Answer using only a numeral; do not append any unit.

Give Th-T fluorescence, mean of three wells (Aβ42 (Homo sapiens, UniProt P05067)) of the following compound: C=C1CC[C@@H]2[C@](C)(CC[C@H]3O[C@H](C=C(C)C)C[C@@]23C)[C@@H]1Cc1c(OC)oc(CO)c(C(=O)OC)c1=O [Compound 21] 1.034

Quick one: C=C1CC[C@H]2[C@]3(C)C[C@H](C=C(C)C)O[C@H]3CC[C@]2(C)[C@@H]1Cc1c(OC)oc(C)c(C)c1=O [Compound 24] 3.936

Quick one: C=C1CCC2C(C)(CC(=O)C=C(C)C)C(O)CCC2(C)C1Cc1c(OC)oc(CO)c(C)c1=O (stereo not shown) [Compound 19] 3.6107

Quick one: C=C1CCC2C(C)(CCC=C(C)C)C(O)CCC2(C)C1Cc1c(OC)oc(C)c(C(=O)OC)c1=O (stereo not shown) [Compound 14] 1.637

---

- ASSAYED SYSTEM: UniProtKB P05067
- TEST DETAILS: Th-T (thioflavin-T) assay of Aβ42 aggregation
- Format: biochemical
- CONDITION SUMMARY: compound at 20; reading M58 of time course
VALUE TYPE: Th-T fluorescence, mean of three wells
Answer using only a numeral; do not append any unit.

Requested read-out: Th-T fluorescence, mean of three wells. Entry: C=C1CC[C@@H]2[C@](C)(CC[C@H]3O[C@H](C=C(C)C)C[C@@]23C)[C@@H]1Cc1c(OC)oc(CO)c(C(=O)OC)c1=O [Compound 21] 0.2297

Quick one: C=C1CCC2C(C)(CCC=C(C)C)C(O)CCC2(C)C1Cc1c(OC)oc(CO)c(C)c1=O (centres unmarked) [Compound 12] 2.143

Quick one: C=C1CC[C@@H]2[C@](C)(CC[C@H]3O[C@H](C=C(C)C)C[C@@]23C)[C@@H]1Cc1c(OC)oc(CO)c(C)c1=O [Compound 20] 3.449

Quick one: C=C1CCC2C(C)(CCC=C(C)C)C(O)CCC2(C)C1Cc1c(OC)oc(CO)c(C(=O)OC)c1=O (centres unmarked) [Compound 13] 0.9604

Quick one: C=C1CCC2C(C)(CCC=C(C)C)C(O)CCC2(C)C1Cc1c(OC)oc(C)c(C(=O)OC)c1=O (centres unmarked) [Compound 14] 2.093
